The entries below are paired with their reported MIC.
test system: Escherichia coli (ATCC 25922)
The answer is to be given in µg/mL; state only the numeric part.

Guide cases for MIC, answers given:
{"COMPOUND": "CC(C)(O)C1Cc2ccc(C=CC(=O)O)c(CO)c2O1 (centres unmarked)", "UNIT_TEXT": "µg/mL", "MIC": 50}
{"COMPOUND": "Cc1cc2ccc3c(c2cn1)OC(C(C)(C)O)C3 (centres unmarked)", "UNIT_TEXT": "µg/mL", "MIC": 50}

## Input Look up MIC for this compound: "Cc1cc2ccc3cc(C(C)(C)O)oc3c2cn1"
## Output 25

## Input Repeat with CC(C)C1(O)Oc2c(ccc(CO)c2CO)C1=O (centres unmarked)
## Output 100

## Input Input O=C(O)c1cn(C2CC2)c2cc(N3CCNCC3)c(F)cc2c1=O [Ciprofloxacin, reference compound]
## Output 0.8

* * *

# MIC per record follows
Test system: Penicillium italicum
Test: Antimicrobial MIC, 96-well broth dilution
Format: cell-based
Details: tested range 0.78–100 μg/mL, 48 h at 27 °C, means of three parallel experiments, read-out: minimum inhibitory concentration (MIC)
From the text: In contrast, for fungal inhibition activity, aza-benzofuran compounds show lower activity than oxa-benzofuran compounds. […] In terms of antifungal activity, when compound 5 and 6 form hydroxyl groups at position C-6, their polarity […], making them more susceptible to penetrating fungal cell membranes through hydrophobic mechanisms. […]
Entry rule: numbers only, all in µg/mL.

Example entries and their recorded answers appear below.
{"COMPOUND": "CC(C)(O)C1Cc2ccc(C=CC(=O)O)c(CO)c2O1 (centres unmarked) [Compound 5]", "MIC, µg/mL": 12.5}
{"COMPOUND": "Cc1cc2ccc3c(c2cn1)OC(C(C)(C)O)C3 (centres unmarked) [Compound 2]", "MIC, µg/mL": 50}
{"COMPOUND": "CC(C)C1(O)Oc2c(ccc(CO)c2CO)C1=O (centres unmarked) [Compound 6]", "MIC, µg/mL": 12.5}
{"COMPOUND": "COC(=O)Nc1nc2ccccc2[nH]1 [Carbendazim, reference compound]", "MIC, µg/mL": 0.78}

## Input What MIC value was documented for this compound, Cc1cc2ccc3cc(C(C)(C)O)oc3c2cn1 [Compound 1] ?
## Output 50

* * *

Below are MIC values measured for Colletotrichum musae.

{"COMPOUND": "CC(C)(O)C1Cc2ccc(C=CC(=O)O)c(CO)c2O1 (centres unmarked)", "MIC": "12.5 to 25 µg/mL"}
{"COMPOUND": "COC(=O)Nc1nc2ccccc2[nH]1 [Carbendazim, reference compound]", "MIC": "0.78 µg/mL"}
{"COMPOUND": "CC(C)C1(O)Oc2c(ccc(CO)c2CO)C1=O (centres unmarked)", "MIC": "12.5 to 25 µg/mL"}
{"COMPOUND": "Cc1cc2ccc3c(c2cn1)OC(C(C)(C)O)C3 (centres unmarked)", "MIC": "25 µg/mL"}

## Input Form field: reported MIC of "Cc1cc2ccc3cc(C(C)(C)O)oc3c2cn1"
## Output 50 µg/mL

* * *

system: LPS-stimulated RAW 264.7 cells; assay: Inhibition of NO production (Griess reagent) in LPS-stimulated macrophages; assay type: cell-based, mouse; conditions: RAW 264.7 cells, 4 h pretreatment, 1 μg/mL LPS for 24 h; mean ± SD, three independent experiments
PARAMETER_MEASURED: IC50 (µM)
Enter your answer as a number in µM; do not include the unit.

## Input What measured IC50 goes with "Cc1cc2ccc3cc(C(C)(C)O)oc3c2cn1" ?
## Output 17.3

* * *

assay: Cytotoxicity, MTT assay; format: cell-based; details: mouse
PARAMETER_MEASURED: CC50 at 72 h

## Input Would you mind telling me what CC50 at 72 h value was observed for Cc1ccc(-c2cc(C(F)(F)F)nn2-c2ccc(S(N)(=O)=O)cc2)cc1 [Celecoxib, reference compound] ?
## Output > 50 µM

* * *

Assay system Fusarium oxysporum; read-out recorded as MIC.
Give the value, in units of µg/mL, as a plain number.

Worked examples follow.
{"COMPOUND": "Cc1cc2ccc3cc(C(C)(C)O)oc3c2cn1", "EXPERIMENTAL_TARGET": "Fusarium oxysporum", "ENDPOINT_VALUE": 50}
{"COMPOUND": "COC(=O)Nc1nc2ccccc2[nH]1 [Carbendazim, reference compound]", "EXPERIMENTAL_TARGET": "Fusarium oxysporum", "ENDPOINT_VALUE": 1.56}
{"COMPOUND": "Cc1cc2ccc3c(c2cn1)OC(C(C)(C)O)C3 (centres unmarked)", "EXPERIMENTAL_TARGET": "Fusarium oxysporum", "ENDPOINT_VALUE": 50}
{"COMPOUND": "CC(C)(O)C1Cc2ccc(C=CC(=O)O)c(CO)c2O1 (centres unmarked)", "EXPERIMENTAL_TARGET": "Fusarium oxysporum", "ENDPOINT_VALUE": 50}

Lab note: next compound to report on.
## Input For the compound CC(C)C1(O)Oc2c(ccc(CO)c2CO)C1=O (centres unmarked) , what MIC is on record?
## Output 50
